Test system: MCF-7 cells from a breast cancer of human origin
Assay: Cytotoxicity on MCF-7 cells (MTT viability test)
Type: cell-based
Details: MCF7, 12.5 μM, 24 h
Would you kindly list mortality at 12.5 µM for each of these compounds?
Answers are plain numbers, in %.

Check out these entries, answers already filled in.
{"smiles-input": "CC1(C)N[Se]c2c([N+](=O)[O-])cccc21", "mortality at 12.5 µM / %": 100}
{"smiles-input": "CC/C(=C(\\c1ccccc1)c1ccc(OCCN2[Se]c3c([N+](=O)[O-])cccc3C2(C)C)cc1)c1ccccc1", "mortality at 12.5 µM / %": 28.6}
{"smiles-input": "CC1(C)c2cccc([N+](=O)[O-])c2[Se]N1CCO", "mortality at 12.5 µM / %": 75.3}

With those in mind, consider the next compound.
Lookup result for "CC(=O)N1[Se]c2c([N+](=O)[O-])cccc2C1(C)C" ; measured mortality at 12.5 µM: 79.8

###

Kindly state mortality at 0.391 µM for each of the entries shown.
Test system: MCF-7 cells from a breast cancer of human origin
Test: Cytotoxicity on MCF-7 cells (MTT viability test)
Assay type: cell-based
Conditions: MCF7, 0.391 μM, 48 h
Report field: quantity (unit follows the number).

{"smiles-input": "CC1(C)c2cccc([N+](=O)[O-])c2[Se]N1CCO", "mortality at 0.391 µM": "0%"}
{"smiles-input": "CC1(C)N[Se]c2c([N+](=O)[O-])cccc21", "mortality at 0.391 µM": "0%"}
{"smiles-input": "CC(=O)N1[Se]c2c([N+](=O)[O-])cccc2C1(C)C", "mortality at 0.391 µM": "12.8%"}

// sample "CC/C(=C(\c1ccccc1)c1ccc(OCCN2[Se]c3c([N+](=O)[O-])cccc3C2(C)C)cc1)c1ccccc1" , its mortality at 0.391 µM was 8.42%

###

property-measured: melting point (°C)
Give bare numbers, in °C.

Here are 3 compounds together with their reported answers.
{"compound": "CC1(C)CN[Se]c2c([N+](=O)[O-])cccc21", "property-measured": "melting point", "data-value": 108}
{"compound": "CC12CCC3c4ccc(O)cc4CC(CCCCCCCCN4[Se]c5c([N+](=O)[O-])cccc5C4(C)C)C3C1CCC2O (stereo not shown)", "property-measured": "melting point", "data-value": 95}
{"compound": "CC(=O)N1CC(C)(C)c2cccc([N+](=O)[O-])c2[Se]1", "property-measured": "melting point", "data-value": 127}

We next turn to a different compound, shown below.
Memo: CC12CCC3c4ccc(O)cc4CC(CCCCCCCC(=O)N4[Se]c5c([N+](=O)[O-])cccc5C4(C)C)C3C1CCC2O (stereo not shown) , reported melting point: 128

###

Please provide measured mortality at 50 µM for the entries that follow.
Test system: MCF-7 cells from a breast cancer of human origin
Assay: Cytotoxicity on MCF-7 cells (MTT viability test)
Format: cell-based
Conditions: MCF7, 50 μM, 24 h
Procedure: The MCF-7 cells from a breast cancer of human origin are cultivated, in an atmosphere of a gaseous mixture of 95% air and 5% CO2, saturated with water, two days before the test, in order to be in a growth phase during the toxicity test. […] To 200 μl of culture medium are added 50 μl of MTT at 5 mg/ml in PBS buffer. […] The coloration developed is measured at 550 nm against DMSO. […]
Numbers only, in %.

Sample answers from the record:
{"smiles-input": "CC/C(=C(\\c1ccccc1)c1ccc(OCCN2[Se]c3c([N+](=O)[O-])cccc3C2(C)C)cc1)c1ccccc1", "unit-of-measurement": "%", "data-value": 40.8}
{"smiles-input": "CC1(C)N[Se]c2c([N+](=O)[O-])cccc21", "unit-of-measurement": "%", "data-value": 100}

For every listed record, write down its mortality at 50 µM.
1. CC1(C)c2cccc([N+](=O)[O-])c2[Se]N1CCO
2. CC(=O)N1[Se]c2c([N+](=O)[O-])cccc2C1(C)C

1: 99.8; 2: 100
